System: bacterial 16S rRNA
Experiment: Species specificity of short probe pairs, 16 sensor array at ambient temperature (Example 5)
Format: binding
Conditions: ambient temperature hybridization
{Fluorescein} = fluorescein label on detector probe, binding site for anti-fluorescein Fab-HRP conjugate; {Biotin} = biotin label on capture probe, anchors to streptavidin on sensor surface

substance | Species detected
EF187C (20 mer)/EF167D (20 mer): Enterococcus spp. probe pair, SEQ ID NO: 52 and 53 (DNA 1 ACCGCGGGTCCATCCATCAG; DNA 2 CGACACCCGAAAGCGCCTTT; DNA 1: 5' {Biotin}, sugars by position and backbone not given here; DNA 2: 3' {Fluorescein}, sugars by position and backbone not given here; listed as Enterococcus sp.) | Ef
PA122C (15 mer)/PA107D (15 mer): Pseudomonas aeruginosa probe pair, SEQ ID NO: 50 and 51 (DNA 1 CCCACTTTCTCCCTC; DNA 2 AGGACGTATGCGGTA; DNA 1: 5' {Biotin}, sugars by position and backbone not given here; DNA 2: 3' {Fluorescein}, sugars by position and backbone not given here; listed as Pseudomonas aeruginosa) | Pa
